Parameter hERG current change (%, negative = inhibition) at 10uM: see the listing below.
Molecular target: human ether-à-go-go-related gene (hERG) potassium channel (human)
Test: primary screen, population patch clamp on CHO cells stably expressing hERG; higher = less effect of the substance
Experimental: Briefly, Chinese hamster ovary (CHO) cells stably expressing the hERG channel were dislodged from tissue culture flasks and dispensed into PPC plates. […] During the recording, background leak currents were estimated by a 100 ms step to -80 mV from an initial holding potential of -70 mV and subtracted from the subsequent current measurement. The campaign was conducted in two phases using slight differences in recording protocol. […]
The whole screen tested about 310,000 compounds, of which about 14,000 (4.5%) showed an effect of 50% or more. Effects have a minus sign here. What follows is part of a selection rich in strong results, with near analogues and random picks from the rest.
Numbers only; they are read as %.

Answered examples (10):
molecule=CCN(CC)CCn1c2c(c(SCC(=O)Nc3cccc4ccccc34)nc1=O)CCCC2 readout_unit=% measured_value=-63.8
molecule="Cc1nn(C(C)C)c(C)c1CN1CCN(Cc2ccsc2)C(CCO)C1 (stereo not shown)" readout_unit=% measured_value=0.518
molecule=Cc1ccc(CNC(=O)CN2C(=O)COc3ccc(C)cc32)cc1 readout_unit=% measured_value=-5.06
molecule=CCN(CC)CCCn1c2c(c(SCC(=O)N3CCc4ccccc43)nc1=O)CCC2 readout_unit=% measured_value=-78.6
molecule=CCOc1ccccc1-n1c(SCC(=O)Nc2ccccc2C(=O)O)nc2ccccc2c1=O readout_unit=% measured_value=8.39
molecule=Cc1ccc(CNS(=O)(=O)c2cc(F)ccc2CN2C(=O)c3cccnc3C2=O)o1 readout_unit=% measured_value=-9.97
molecule="O=C1NC2NC(=O)N([N+](=O)[O-])C2N1 (stereo not shown)" readout_unit=% measured_value=14.6
molecule=COc1ccc2nc(NC(=O)CCc3ccc(OC)c(OC)c3)sc2c1 readout_unit=% measured_value=26.2
molecule="O=C(c1cccs1)N1CCC(c2ccccc2)C1 (stereo not shown)" readout_unit=% measured_value=-1.16
molecule=CCCc1c(C(=O)NNc2cc(C(F)(F)F)ccc2Cl)cnn1-c1ccccc1 readout_unit=% measured_value=0.78

# input Please indicate hERG current change (%, negative = inhibition) at 10uM recorded for "CS(=O)(=O)c1ccc(-c2cccc(NC(=O)c3ccc(Br)o3)c2)nn1"
# output 3.74

# input Please indicate hERG current change (%, negative = inhibition) at 10uM recorded for "CCOC(=O)C1CCN(S(=O)(=O)c2ccc(CN3C(=O)c4cccnc4C3=O)cc2)CC1"
# output -9.61

----------
target: human ether-à-go-go-related gene (hERG) potassium channel (human, UniProt Q12809); assay: primary screen, population patch clamp on CHO cells stably expressing hERG; higher = less effect of the substance;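 note: peak tail current of the secondary pulse compared with the same well before compound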
Sequence (Q12809 whole entry, looked up): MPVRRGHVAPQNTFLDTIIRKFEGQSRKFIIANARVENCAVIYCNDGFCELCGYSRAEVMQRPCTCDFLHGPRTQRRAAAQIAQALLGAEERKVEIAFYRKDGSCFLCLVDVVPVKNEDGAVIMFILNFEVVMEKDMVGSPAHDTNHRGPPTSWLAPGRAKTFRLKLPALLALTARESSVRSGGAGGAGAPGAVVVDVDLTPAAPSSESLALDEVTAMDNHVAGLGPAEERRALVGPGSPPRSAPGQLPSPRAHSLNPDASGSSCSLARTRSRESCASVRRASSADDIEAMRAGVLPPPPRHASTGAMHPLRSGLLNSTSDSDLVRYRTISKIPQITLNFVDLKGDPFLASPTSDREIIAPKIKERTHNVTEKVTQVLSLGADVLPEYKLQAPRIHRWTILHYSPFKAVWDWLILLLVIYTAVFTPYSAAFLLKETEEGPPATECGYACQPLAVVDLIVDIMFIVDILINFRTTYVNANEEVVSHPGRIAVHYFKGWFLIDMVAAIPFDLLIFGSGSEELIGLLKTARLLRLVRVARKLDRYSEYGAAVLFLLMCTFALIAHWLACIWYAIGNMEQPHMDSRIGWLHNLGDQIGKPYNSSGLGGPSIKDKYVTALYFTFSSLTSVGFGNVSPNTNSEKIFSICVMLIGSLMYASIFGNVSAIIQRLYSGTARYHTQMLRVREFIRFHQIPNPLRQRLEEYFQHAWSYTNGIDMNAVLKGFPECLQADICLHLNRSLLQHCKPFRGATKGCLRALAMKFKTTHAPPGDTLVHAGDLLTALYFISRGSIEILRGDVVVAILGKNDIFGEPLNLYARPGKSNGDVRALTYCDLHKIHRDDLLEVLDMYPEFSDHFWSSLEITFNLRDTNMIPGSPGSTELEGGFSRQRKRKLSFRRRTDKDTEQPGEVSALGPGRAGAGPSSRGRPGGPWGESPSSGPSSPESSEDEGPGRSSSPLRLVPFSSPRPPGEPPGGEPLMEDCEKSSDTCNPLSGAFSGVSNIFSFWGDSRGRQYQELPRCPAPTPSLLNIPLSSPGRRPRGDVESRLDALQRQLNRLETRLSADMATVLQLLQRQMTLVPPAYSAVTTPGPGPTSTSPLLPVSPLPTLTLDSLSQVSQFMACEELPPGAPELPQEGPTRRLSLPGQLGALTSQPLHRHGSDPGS
Among all 310,000 compounds or so, about 14,000 (4.5%) showed an effect of 50% or more. Effects have a minus sign here. The entries come from a sample that favours strong results as a whole.
hERG current change (%, negative = inhibition) at 10uM below -30% gives not met; hERG current change (%, negative = inhibition) at 10uM at or above it gives met.

compound=Cc1ccc(NC(=O)c2oc3ccc(S(=O)(=O)N4CCOCC4)cc3c2C)c(C)c1 class_label=met

# input Record "CCCCCCOc1ccc(/C(C)=N/NC2=NCCN2)cc1" ; criterion: hERG current change (%, negative = inhibition) at 10uM no lower than -30%. Met?
# output met

# input Record "CCCCCOc1ccc(Br)cc1/C(C)=N/NC1=NCCN1" ; criterion: hERG current change (%, negative = inhibition) at 10uM no lower than -30%. Met?
# output not met

# input Record CC(C)N1C(=O)CC(Nc2ccc(N3CCOCC3)cc2)C1=O (stereo not drawn) ; criterion: hERG current change (%, negative = inhibition) at 10uM no lower than -30%. Met?
# output met

# input Record "O=C(O)c1cc([N+](=O)[O-])ccc1C(=O)Nc1ccccc1" ; criterion: hERG current change (%, negative = inhibition) at 10uM no lower than -30%. Met?
# output met

----------
target: human ether-à-go-go-related gene (hERG) potassium channel (human, UniProt Q12809); test: primary screen, population patch clamp on CHO cells stably expressing hERG; higher = less effect of the substance;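 note: peak tail current of the secondary pulse compared with the same well before compound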
About 14,000 (4.5%) of roughly 310,000 compounds showed an effect of 50% or more. Effects have a minus sign here. Shown is part of a subset that was picked to be rich in strong results.
Attribute Measured: hERG current change (%, negative = inhibition) at 10uM (%)
Numbers only; they are read as %.

# input Please indicate hERG current change (%, negative = inhibition) at 10uM recorded for "COc1ccc(C(=O)NC2CCN(CC(=O)NC3CCCCC3)CC2)cc1"
# output -17.3

# input Please indicate hERG current change (%, negative = inhibition) at 10uM recorded for "CCCCOc1ccc(NC(=O)CN2CCN(Cc3ccccc3)CC2)cc1"
# output -49.4

# input Please indicate hERG current change (%, negative = inhibition) at 10uM recorded for "COc1ccc(C(=O)NC2CCN(CC(=O)Nc3cccc(OC)c3)CC2)cc1"
# output -25.4

# input Please indicate hERG current change (%, negative = inhibition) at 10uM recorded for "CCC(=O)c1ccc(OCC(=O)OCC(=O)N2CCc3ccccc3C2)cc1"
# output -24.8

# input Please indicate hERG current change (%, negative = inhibition) at 10uM recorded for "COc1cc2c(cc1OC)CN(CC(=O)Nc1ccc(C#N)cc1)CC2"
# output -63.1

----------
biological target: human ether-à-go-go-related gene (hERG) potassium channel (human); assay: primary screen, population patch clamp on CHO cells stably expressing hERG; higher = less effect of the substance;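 note: peak tail current of the secondary pulse compared with the same well before compound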
About 14,000 (4.5%) of roughly 310,000 compounds showed an effect of 50% or more. Effects have a minus sign here. The sample as a whole holds a higher share of strong results than the screen did.
Attribute Measured: hERG current change (%, negative = inhibition) at 10uM (%)
Numbers only; they are read as %.

Answered examples (2):
compound="CC1C(=O)N2CCCc3cc(S(=O)(=O)N4CCC(C(N)=O)CC4)cc1c32 (centres unmarked)" measured_value=7.24
compound=Cc1ccc(-n2c(SCC(=O)N3c4ccccc4Sc4ccccc43)nnc2-c2ccncc2)cc1 measured_value=-3.06

# input Would you please give the reported hERG current change (%, negative = inhibition) at 10uM of COc1ccc(CCN2C(=O)N(c3ccc(OC)cc3)C(=O)C2CC(=O)Nc2ccc(OC)cc2)cc1 (centres unmarked) with human ether-à-go-go-related gene (hERG) potassium channel (human)?
# output 7.46

# input Would you please give the reported hERG current change (%, negative = inhibition) at 10uM of "COc1ccccc1NS(=O)(=O)c1ccc(O)cc1" with human ether-à-go-go-related gene (hERG) potassium channel (human)?
# output 1.44

# input Would you please give the reported hERG current change (%, negative = inhibition) at 10uM of "CC1CCN(C(=O)c2ccccc2NS(=O)(=O)c2ccccc2)CC1" with human ether-à-go-go-related gene (hERG) potassium channel (human)?
# output 8.52

----------
molecular target: human ether-à-go-go-related gene (hERG) potassium channel (human, UniProt Q12809); assay: primary screen, population patch clamp on CHO cells stably expressing hERG; higher = less effect of the substance;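 note: peak tail current of the secondary pulse compared with the same well before compound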
Out of some 310,000 compounds screened, about 14,000 (4.5%) showed an effect of 50% or more. Effects have a minus sign here. This excerpt belongs to a sample that is enriched for strong results.
hERG current change (%, negative = inhibition) at 10uM below -30% gives class 0; hERG current change (%, negative = inhibition) at 10uM at or above it gives class 1.

compound="O=C(CSc1nnc(C2CC2)n1CC1CCCO1)Nc1ccc(Cl)cc1 (stereo not drawn)" class_label="class 0"
compound=O=C(COC(=O)c1ccccc1F)NNC(=O)c1ccccc1 class_label="class 1"
compound=O=C(Nc1nnc(-c2ccc(Cl)cc2)o1)c1ccc(N2C(=O)CCC2=O)cc1 class_label="class 1"

# input Record "O=C(CN1C(=O)NC2(CCCCCC2)C1=O)c1ccc(OC(F)F)cc1OC(F)F" ; criterion: hERG current change (%, negative = inhibition) at 10uM no lower than -30%. Met?
# output class 0

# input Record "CCOC(=O)C1(P(=O)(c2ccc(Cl)cc2)c2ccc(Cl)cc2)CCC1" ; criterion: hERG current change (%, negative = inhibition) at 10uM no lower than -30%. Met?
# output class 1

# input Record Cc1cccc(N2CCN(C(C)C(=O)N3CCc4ccccc43)CC2)c1C (stereo not drawn) ; criterion: hERG current change (%, negative = inhibition) at 10uM no lower than -30%. Met?
# output class 1

# input Record C=CCn1c(=O)/c(=C\c2ccccn2)s/c1=C(/C#N)C(=O)NCC1CCCO1 (stereo not drawn) ; criterion: hERG current change (%, negative = inhibition) at 10uM no lower than -30%. Met?
# output class 1

# input Record Cc1nnc(SCC(=O)Nc2cccc(Cl)c2)n1CC1CCCO1 (stereo not drawn) ; criterion: hERG current change (%, negative = inhibition) at 10uM no lower than -30%. Met?
# output class 1
